# System: U2OS
# METHOD_SUMMARY: Multiplex assay against U2OS
# Type: toxicity, cell-based
# EXPERIMENTAL_CONDITIONS: human, 24 h, 1 µM, compound concentration 1 uM, replicate 2
Each entry below lists one item and its recorded Population Mitochondria Different-Phenotype (%) value.
A number alone suffices; assume %.

Solved entries (count: 10):
>  <MOLECULE>
CC(/C=C1\SC(=S)N(CCCC(=O)Nc2ccc(C(=O)O)c(O)c2)C1=O)=C\c1ccccc1

>  <UNIT_SPEC>
%

>  <VALUE>
10

$$$$
>  <MOLECULE>
Cl.NC[C@@H]1O[C@H](C23CC4CC(CC(C4)C2)C3)Cc2c1ccc(O)c2O

>  <UNIT_SPEC>
%

>  <VALUE>
10

$$$$
>  <MOLECULE>
Cc1c(Nc2ccc(S(=O)(=O)N3CCN(C)CC3)cc2F)nc2ccc(Nc3cnn(C4CC4)c3)cn2c1=O

>  <UNIT_SPEC>
%

>  <VALUE>
10

$$$$
>  <MOLECULE>
CN1C(=O)[C@@H](NC(=O)c2cc3ccccc3[nH]2)N=C(c2ccccc2)c2ccccc21 [DEVAZEPIDE]

>  <UNIT_SPEC>
%

>  <VALUE>
10

$$$$
>  <MOLECULE>
Cc1c(Nc2ccc(S(=O)(=O)N3CCN(C)CC3)cc2F)nc2ccc(-c3cnn(C4CC4)c3)cn2c1=O

>  <UNIT_SPEC>
%

>  <VALUE>
29

$$$$
>  <MOLECULE>
Cc1c(P(=S)(c2ccccc2)c2ccccc2)n2ccccc2[n+]1C/C=C/c1ccccc1.[Br-]

>  <UNIT_SPEC>
%

>  <VALUE>
31

$$$$
>  <MOLECULE>
Cc1ccc(S(=O)(=O)NC2c3ccccc3Oc3ccccc32)cc1

>  <UNIT_SPEC>
%

>  <VALUE>
15

$$$$
>  <MOLECULE>
N#CCNC(=O)c1ccc(-c2ccnc(Nc3ccc(N4CCOCC4)cc3)n2)cc1

>  <UNIT_SPEC>
%

>  <VALUE>
15

$$$$
>  <MOLECULE>
Cl.Cn1c2c(c3ccc(Cl)c(Cl)c31)C(C#N)C1(CCNCC1)NC2=O (stereo unspecified)

>  <UNIT_SPEC>
%

>  <VALUE>
29

$$$$
>  <MOLECULE>
CCOc1ccn(-c2ccc(F)cc2)c(=O)c1C(=O)Nc1ccc(Oc2ccnc(N)c2Cl)c(F)c1

>  <UNIT_SPEC>
%

>  <VALUE>
35

$$$$

--- query ---
For this molecule ( `CCOC(=O)CCNc1cc(N2CCc3ccccc3CC2)nc(-c2ccccn2)n1` ), measured Population Mitochondria Different-Phenotype (%) is 28
